Measured values drawn from ChEMBL document CHEMBL4373663 for this set.

Experiment: Inhibition of Escherichia coli DNA topoisomerase 4 using supercoiled pNO1 plasmid DNA as substrate incubated for 30 mins by fluorescence assay
quantity kind: IC50 (µM)
The reply should be a number in µM, with the unit left off.

[in] Given the compound `Cc1nc(-c2cc(NC(=O)CC(=O)O)ccc2NC(=O)c2cc(Br)c(Br)[nH]2)no1` , write its reported IC50.
[out] 11

* * *

Target: Topoisomerase IV (Staphylococcus aureus) (UniProt P0C1U9+P0C1S7)
Experiment: Inhibition of Staphylococcus aureus DNA topoisomerase 4 using supercoiled pNO1 plasmid DNA as substrate assessed as enzyme residual activity at 10 uM incubated for 30 mins by fluorescence assay relative to control
Assay type: protein-complex assay
# Lookup of reported Activity keyed by entry
Report as a plain number; the unit % is understood.

O=C(O)COc1ccc(NC(=O)c2cc(Br)c(Br)[nH]2)c(OCc2ccccc2)c1 ... 92
COC(=O)CC(=O)Nc1ccc(NC(=O)c2cc(Br)c(Br)[nH]2)c(-c2noc(C)n2)c1 ... 100
Cc1nc(-c2cc(NC(=O)Cc3n[nH]c(=O)o3)ccc2NC(=O)c2cc(Br)c(Br)[nH]2)no1 ... 60

[in] Fill: Activity (Topoisomerase IV (Staphylococcus aureus) (UniProt P0C1U9+P0C1S7)) for this compound `Cc1nc(-c2cc(NC(=O)CC(=O)NN)ccc2NC(=O)c2cc(Br)c(Br)[nH]2)no1`
[out] 98

* * *

Target: Topoisomerase IV (Staphylococcus aureus, UniProt P0C1S7+P0C1U9)
Sequence (P0C1U9 whole entry): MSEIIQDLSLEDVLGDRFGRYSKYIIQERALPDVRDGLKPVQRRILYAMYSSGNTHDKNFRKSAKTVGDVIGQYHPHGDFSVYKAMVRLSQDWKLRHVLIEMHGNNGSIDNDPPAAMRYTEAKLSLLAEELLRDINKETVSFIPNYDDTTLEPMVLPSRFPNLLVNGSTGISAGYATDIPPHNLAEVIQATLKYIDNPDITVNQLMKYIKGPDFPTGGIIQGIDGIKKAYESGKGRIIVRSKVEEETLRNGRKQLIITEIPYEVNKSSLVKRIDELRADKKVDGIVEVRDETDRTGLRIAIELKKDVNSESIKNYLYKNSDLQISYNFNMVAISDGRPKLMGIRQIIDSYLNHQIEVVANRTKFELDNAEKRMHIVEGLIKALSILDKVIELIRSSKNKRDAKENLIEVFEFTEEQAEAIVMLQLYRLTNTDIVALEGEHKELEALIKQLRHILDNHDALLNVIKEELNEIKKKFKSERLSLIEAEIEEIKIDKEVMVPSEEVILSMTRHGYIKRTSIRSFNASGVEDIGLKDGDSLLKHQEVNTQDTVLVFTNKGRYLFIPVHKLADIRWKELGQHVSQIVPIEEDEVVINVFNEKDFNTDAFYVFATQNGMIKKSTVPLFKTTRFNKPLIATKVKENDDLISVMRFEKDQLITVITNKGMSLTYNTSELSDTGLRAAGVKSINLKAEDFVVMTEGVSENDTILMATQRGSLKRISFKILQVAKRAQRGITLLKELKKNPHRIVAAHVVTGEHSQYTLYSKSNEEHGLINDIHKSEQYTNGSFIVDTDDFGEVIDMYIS
Sequence (P0C1S7 whole entry): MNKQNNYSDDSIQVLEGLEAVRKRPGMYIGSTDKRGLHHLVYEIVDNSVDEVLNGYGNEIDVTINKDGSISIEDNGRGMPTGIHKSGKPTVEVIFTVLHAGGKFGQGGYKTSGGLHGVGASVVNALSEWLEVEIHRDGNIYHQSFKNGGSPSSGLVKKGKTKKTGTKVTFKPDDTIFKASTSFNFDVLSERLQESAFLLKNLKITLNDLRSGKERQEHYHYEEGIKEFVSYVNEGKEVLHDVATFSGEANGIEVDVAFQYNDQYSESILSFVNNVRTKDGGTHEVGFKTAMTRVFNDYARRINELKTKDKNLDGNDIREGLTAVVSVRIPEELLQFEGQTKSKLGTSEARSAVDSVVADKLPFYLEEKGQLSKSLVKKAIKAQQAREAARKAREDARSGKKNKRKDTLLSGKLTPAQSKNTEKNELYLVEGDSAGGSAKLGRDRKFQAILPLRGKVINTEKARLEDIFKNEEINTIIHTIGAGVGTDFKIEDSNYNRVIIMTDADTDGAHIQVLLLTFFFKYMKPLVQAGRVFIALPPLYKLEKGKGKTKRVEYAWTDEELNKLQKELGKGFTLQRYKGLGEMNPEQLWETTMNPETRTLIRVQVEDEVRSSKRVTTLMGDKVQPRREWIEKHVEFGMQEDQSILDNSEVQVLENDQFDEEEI
Experiment: Inhibition of Staphylococcus aureus DNA topoisomerase 4 using supercoiled pNO1 plasmid DNA as substrate incubated for 30 mins by fluorescence assay
quantity kind: pIC50
# reply with the number alone; pIC50 is -log10 of concentration in mol/L

[in] Fill in pIC50 for record `Cc1nc(-c2cc(NC(=O)CC(=O)O)ccc2NC(=O)c2cc(Br)c(Br)[nH]2)no1`
[out] 4.85

* * *

Target: DNA gyrase (Escherichia coli, UniProt P0AES4+P0AES6)
Test: Inhibition of Escherichia coli DNA gyrase using relaxed pNO1 plasmid DNA as substrate incubated for 30 mins by fluorescence assay
pIC50: −log10 of the molar value.
# binarize pIC50: threshold 7 inclusive, high side YES, low side NO

[in] Say whether `Cc1nc(-c2cc(NC(=O)Cc3n[nH]c(=O)o3)ccc2NC(=O)c2cc(Br)c(Br)[nH]2)no1` shows pIC50 of 7 or more.
[out] YES

[in] In plain terms: is recorded pIC50 at least 7 for `O=C(O)COc1ccc(NC(=O)c2cc(Br)c(Br)[nH]2)c(OCc2ccccc2)c1` ?
[out] NO

[in] Evaluate `Cc1nc(-c2cc(NC(=O)CC(=O)O)ccc2NC(=O)c2cc(Br)c(Br)[nH]2)no1` : pIC50 at minimum 7?
[out] YES

[in] Kindly determine if pIC50 recorded for `O=C(Nc1ccc(OCc2n[nH]c(=O)o2)cc1)c1cc(Br)c(Br)[nH]1` is above or exactly 7.
[out] NO

* * *

Target: DNA gyrase (Escherichia coli) (UniProt P0AES6+P0AES4)
Assay: Inhibition of Escherichia coli DNA gyrase using relaxed pNO1 plasmid DNA as substrate assessed as enzyme residual activity at 10 uM incubated for 30 mins by fluorescence assay relative to control
Format: protein-complex assay
quantity kind: Activity (%)
Please give a number only; it is taken to be in %.

Worked cases, Activity given:
NNC(=O)COc1ccc(NC(=O)c2cc(Br)c(Br)[nH]2)cc1 ... 100
O=C(Nc1ccc(OCc2n[nH]c(=O)o2)cc1OCc1ccccc1)c1cc(Br)c(Br)[nH]1 ... 85
COC(=O)COc1ccc(NC(=O)c2cc(Br)c(Br)[nH]2)c(OCc2ccccc2)c1 ... 100

[in] Identify measured Activity obtained with DNA gyrase (Escherichia coli) (UniProt P0AES6+P0AES4) for `NNC(=O)COc1ccc(NC(=O)c2cc(Br)c(Br)[nH]2)c(OCc2ccccc2)c1` .
[out] 100
